Values from the supplement of paper PMC6555819

Tested on: RARa homodimer (NR concentration 270 nM)
Assay: PBM binding z-score (relative to random genomic background probes); higher = stronger binding; sequences stand for … in GC…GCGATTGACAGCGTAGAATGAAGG
Outcome: rule met for PBM binding z-score of at least 0.4; rule not met for anything lower.

- residue-codes: "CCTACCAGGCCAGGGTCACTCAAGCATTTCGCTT"
  label-value: "rule met"
- residue-codes: "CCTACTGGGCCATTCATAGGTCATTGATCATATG"
  label-value: "rule not met"
- residue-codes: "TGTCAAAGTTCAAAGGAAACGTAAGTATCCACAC"
  label-value: "rule met"
- residue-codes: "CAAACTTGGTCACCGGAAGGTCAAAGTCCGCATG"
  label-value: "rule met"
- residue-codes: "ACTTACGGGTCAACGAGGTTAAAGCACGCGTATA"
  label-value: "rule met"
- residue-codes: "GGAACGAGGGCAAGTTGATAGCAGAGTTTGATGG"
  label-value: "rule not met"
- residue-codes: "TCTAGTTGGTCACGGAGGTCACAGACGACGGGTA"
  label-value: "rule met"
- residue-codes: "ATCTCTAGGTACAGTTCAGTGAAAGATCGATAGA"
  label-value: "rule met"
- residue-codes: "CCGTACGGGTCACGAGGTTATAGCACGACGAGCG"
  label-value: "rule met"
- residue-codes: "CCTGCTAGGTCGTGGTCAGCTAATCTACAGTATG"
  label-value: "rule not met"
- residue-codes: "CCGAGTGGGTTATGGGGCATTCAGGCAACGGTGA"
  label-value: "rule not met"
- residue-codes: "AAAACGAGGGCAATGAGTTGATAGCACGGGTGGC"
  label-value: "rule not met"
- residue-codes: "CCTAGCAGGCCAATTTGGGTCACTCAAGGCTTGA"
  label-value: "rule not met"
- residue-codes: "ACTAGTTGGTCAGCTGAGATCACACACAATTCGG"
  label-value: "rule not met"
- residue-codes: "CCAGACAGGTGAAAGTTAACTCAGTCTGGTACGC"
  label-value: "rule not met"
- residue-codes: "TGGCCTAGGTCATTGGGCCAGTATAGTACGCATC"
  label-value: "rule not met"
- residue-codes: "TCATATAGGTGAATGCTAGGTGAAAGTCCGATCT"
  label-value: "rule met"
- residue-codes: "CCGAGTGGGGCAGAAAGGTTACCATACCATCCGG"
  label-value: "rule not met"
- residue-codes: "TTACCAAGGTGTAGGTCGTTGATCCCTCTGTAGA"
  label-value: "rule not met"
- residue-codes: "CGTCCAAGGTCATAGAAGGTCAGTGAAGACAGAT"
  label-value: "rule met"
- residue-codes: "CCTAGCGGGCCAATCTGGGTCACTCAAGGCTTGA"
  label-value: "rule not met"
- residue-codes: "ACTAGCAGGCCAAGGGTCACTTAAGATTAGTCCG"
  label-value: "rule not met"
- residue-codes: "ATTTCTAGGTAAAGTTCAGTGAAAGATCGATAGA"
  label-value: "rule met"
- residue-codes: "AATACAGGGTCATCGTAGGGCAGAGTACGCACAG"
  label-value: "rule met"
- residue-codes: "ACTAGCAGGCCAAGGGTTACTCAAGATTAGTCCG"
  label-value: "rule not met"
- residue-codes: "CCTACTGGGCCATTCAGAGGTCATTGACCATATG"
  label-value: "rule not met"
- residue-codes: "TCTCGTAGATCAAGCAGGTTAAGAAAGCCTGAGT"
  label-value: "rule not met"
- residue-codes: "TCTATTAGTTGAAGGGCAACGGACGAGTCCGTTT"
  label-value: "rule met"
- residue-codes: "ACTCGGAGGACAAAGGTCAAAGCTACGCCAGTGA"
  label-value: "rule not met"
- residue-codes: "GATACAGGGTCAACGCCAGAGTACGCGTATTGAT"
  label-value: "rule met"
- residue-codes: "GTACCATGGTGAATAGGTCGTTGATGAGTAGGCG"
  label-value: "rule not met"
- residue-codes: "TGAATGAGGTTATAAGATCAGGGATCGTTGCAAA"
  label-value: "rule not met"
- residue-codes: "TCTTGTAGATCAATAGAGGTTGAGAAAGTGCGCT"
  label-value: "rule not met"
- residue-codes: "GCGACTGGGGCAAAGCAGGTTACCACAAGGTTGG"
  label-value: "rule not met"
- residue-codes: "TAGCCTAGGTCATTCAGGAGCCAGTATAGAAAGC"
  label-value: "rule not met"
- residue-codes: "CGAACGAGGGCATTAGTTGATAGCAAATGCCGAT"
  label-value: "rule not met"
- residue-codes: "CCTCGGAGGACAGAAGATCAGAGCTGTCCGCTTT"
  label-value: "rule not met"
- residue-codes: "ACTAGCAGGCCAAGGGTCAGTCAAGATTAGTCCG"
  label-value: "rule not met"
- residue-codes: "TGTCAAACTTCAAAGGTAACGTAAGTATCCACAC"
  label-value: "rule not met"
- residue-codes: "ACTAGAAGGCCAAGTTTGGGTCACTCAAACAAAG"
  label-value: "rule not met"
- residue-codes: "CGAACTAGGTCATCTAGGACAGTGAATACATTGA"
  label-value: "rule met"
- residue-codes: "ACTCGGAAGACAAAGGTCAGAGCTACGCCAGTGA"
  label-value: "rule met"
- residue-codes: "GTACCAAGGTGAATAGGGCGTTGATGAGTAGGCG"
  label-value: "rule not met"
- residue-codes: "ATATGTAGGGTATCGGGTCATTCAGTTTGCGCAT"
  label-value: "rule met"
- residue-codes: "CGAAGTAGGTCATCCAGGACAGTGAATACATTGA"
  label-value: "rule met"
- residue-codes: "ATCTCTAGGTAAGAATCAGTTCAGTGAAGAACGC"
  label-value: "rule met"
- residue-codes: "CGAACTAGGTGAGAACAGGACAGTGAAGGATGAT"
  label-value: "rule not met"
- residue-codes: "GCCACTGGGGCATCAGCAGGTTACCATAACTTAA"
  label-value: "rule not met"
- residue-codes: "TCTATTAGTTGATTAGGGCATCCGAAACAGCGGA"
  label-value: "rule met"
- residue-codes: "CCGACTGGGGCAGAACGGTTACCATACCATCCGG"
  label-value: "rule not met"

---

Test system: RXRa DBDmut IVT, anti-RXR (DBD mutation: RXRa K156A/R161A, NR concentration 90 nM)
Experiment: PBM binding z-score (relative to random genomic background probes); higher = stronger binding; sequences stand for … in GC…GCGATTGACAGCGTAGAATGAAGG
Outcome: YES for PBM binding z-score of at least 0.3; NO for anything lower.

- residue-codes: "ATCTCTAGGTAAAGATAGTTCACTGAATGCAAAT"
  label-value: "NO"
- residue-codes: "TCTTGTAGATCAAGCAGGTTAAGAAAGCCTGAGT"
  label-value: "YES"
- residue-codes: "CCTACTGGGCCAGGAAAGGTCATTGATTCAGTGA"
  label-value: "NO"
- residue-codes: "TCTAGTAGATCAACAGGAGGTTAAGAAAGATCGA"
  label-value: "YES"
- residue-codes: "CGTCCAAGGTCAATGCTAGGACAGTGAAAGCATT"
  label-value: "YES"
- residue-codes: "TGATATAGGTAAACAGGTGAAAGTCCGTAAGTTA"
  label-value: "NO"

---

Tested on: RARg homodimer (NR concentration 270 nM)
Experiment: PBM binding z-score (relative to random genomic background probes); higher = stronger binding; sequences stand for … in GC…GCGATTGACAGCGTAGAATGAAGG

- residue-codes: "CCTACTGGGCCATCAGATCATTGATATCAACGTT"
  PBM binding z-score: 0.48
- residue-codes: "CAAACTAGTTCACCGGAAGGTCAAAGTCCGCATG"
  PBM binding z-score: 4.99
- residue-codes: "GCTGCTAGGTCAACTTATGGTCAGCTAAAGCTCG"
  PBM binding z-score: 5.44
- residue-codes: "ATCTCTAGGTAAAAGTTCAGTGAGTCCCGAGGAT"
  PBM binding z-score: 1.93
- residue-codes: "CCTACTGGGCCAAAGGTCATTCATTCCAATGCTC"
  PBM binding z-score: 4.7
- residue-codes: "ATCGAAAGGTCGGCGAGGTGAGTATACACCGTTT"
  PBM binding z-score: 3.91

---

Form field: PBM binding z-score (one value per entry).
System: RARa homodimer (NR concentration 270 nM)
Assay: PBM binding z-score (relative to random genomic background probes); higher = stronger binding; sequences stand for … in GC…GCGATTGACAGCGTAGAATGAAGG
assay-endpoint: PBM binding z-score

- residue-codes: "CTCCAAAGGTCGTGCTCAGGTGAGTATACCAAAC"
  result-number: 0.196
- residue-codes: "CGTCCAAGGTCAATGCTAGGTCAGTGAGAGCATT"
  result-number: 1.51
- residue-codes: "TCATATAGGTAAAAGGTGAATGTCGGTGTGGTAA"
  result-number: 1.84
- residue-codes: "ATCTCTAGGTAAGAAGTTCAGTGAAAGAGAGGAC"
  result-number: 0.598
- residue-codes: "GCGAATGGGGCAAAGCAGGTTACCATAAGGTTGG"
  result-number: -0.509
- residue-codes: "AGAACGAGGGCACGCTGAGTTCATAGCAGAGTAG"
  result-number: -0.449
- residue-codes: "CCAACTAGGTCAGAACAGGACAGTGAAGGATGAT"
  result-number: 1.58
- residue-codes: "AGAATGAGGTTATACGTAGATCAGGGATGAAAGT"
  result-number: 0.93
- residue-codes: "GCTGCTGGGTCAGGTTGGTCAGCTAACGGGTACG"
  result-number: -0.315
- residue-codes: "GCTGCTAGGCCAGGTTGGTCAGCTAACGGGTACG"
  result-number: -0.954
- residue-codes: "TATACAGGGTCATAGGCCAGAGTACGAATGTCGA"
  result-number: 1.43
- residue-codes: "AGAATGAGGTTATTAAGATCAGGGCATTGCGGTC"
  result-number: 0.408
- residue-codes: "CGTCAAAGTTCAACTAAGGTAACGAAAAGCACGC"
  result-number: 2.25
- residue-codes: "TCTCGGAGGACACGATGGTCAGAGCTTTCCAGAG"
  result-number: -0.829
- residue-codes: "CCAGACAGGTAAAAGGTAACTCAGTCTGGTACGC"
  result-number: 0.346
- residue-codes: "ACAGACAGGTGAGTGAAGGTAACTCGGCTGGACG"
  result-number: -0.294
- residue-codes: "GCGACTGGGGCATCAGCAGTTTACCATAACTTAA"
  result-number: 0.0729
- residue-codes: "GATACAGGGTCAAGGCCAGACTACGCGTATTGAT"
  result-number: 0.813
- residue-codes: "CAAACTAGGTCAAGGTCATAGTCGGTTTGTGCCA"
  result-number: 1.31
- residue-codes: "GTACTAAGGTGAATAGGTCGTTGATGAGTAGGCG"
  result-number: 1.14
- residue-codes: "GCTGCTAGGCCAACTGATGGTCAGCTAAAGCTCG"
  result-number: -1.39
- residue-codes: "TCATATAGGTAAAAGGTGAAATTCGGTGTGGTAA"
  result-number: 1.72
- residue-codes: "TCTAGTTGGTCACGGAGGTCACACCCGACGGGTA"
  result-number: 1.58
- residue-codes: "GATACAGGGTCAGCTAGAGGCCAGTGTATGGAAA"
  result-number: -0.191
- residue-codes: "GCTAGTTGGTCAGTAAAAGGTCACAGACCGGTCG"
  result-number: 1.97
- residue-codes: "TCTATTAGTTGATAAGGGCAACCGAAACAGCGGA"
  result-number: 0.996
